Source of measurements: PubChem BioAssay (NCI)

Tested on: DU-145 prostate
ASSAY_INFO: NCI tumour cell line growth inhibition, 48 h
PROPERTY: TGI

- COMPOUND_STRUCTURE_STRING: "C/C(=N\\N=C\\c1ccc(Cl)c([N+](=O)[O-])c1)c1ccc2c(c1)Nc1ccccc1S2"
  SYSTEM: "DU-145 prostate"
  PROPERTY: "TGI"
  RESULT: "> 100 µM"
- COMPOUND_STRUCTURE_STRING: "COc1nc(N)ncc1-c1ccc2ncnc(N3CCc4cc(F)c(Cl)cc43)c2c1"
  SYSTEM: "DU-145 prostate"
  PROPERTY: "TGI"
  RESULT: "36.2 µM"
- COMPOUND_STRUCTURE_STRING: "COc1cccc(COc2ccc(/C=C3\\Oc4cc(O)ccc4C3=O)cc2)c1"
  SYSTEM: "DU-145 prostate"
  PROPERTY: "TGI"
  RESULT: "> 100 µM"
- COMPOUND_STRUCTURE_STRING: "Cc1ccc2nc(COc3ccc(C(=O)NNC(=O)Nc4ccc(Cl)c(C(F)(F)F)c4)cc3)[nH]c2c1"
  SYSTEM: "DU-145 prostate"
  PROPERTY: "TGI"
  RESULT: "> 100 µM"

###

Measured TGI accompanies every entry in the list below.
Test system: PC-3 prostate
ASSAY_INFO: NCI tumour cell line growth inhibition, 48 h
PROPERTY: TGI

- COMPOUND_STRUCTURE_STRING: "COc1cccc(COc2ccc(/C=C3\\Oc4cc(O)ccc4C3=O)cc2)c1"
  SYSTEM: "PC-3 prostate"
  RESULT: "> 100 µM"
- COMPOUND_STRUCTURE_STRING: "COc1nc(N)ncc1-c1ccc2ncnc(N3CCc4cc(F)c(Cl)cc43)c2c1"
  SYSTEM: "PC-3 prostate"
  RESULT: "> 100 µM"
- COMPOUND_STRUCTURE_STRING: "CC/C(=C(\\c1ccc(O)cc1)c1ccc(OCCN(C)C(=O)COCCNC(=O)Cc2ccc3c(c2)CN([C@@H]2CCC(=O)NC2=O)C3=O)cc1)c1ccccc1"
  SYSTEM: "PC-3 prostate"
  RESULT: "> 100 µM"
